Taken from patent US9771341B2.

- Target: ABHD6 (Mus musculus)
- Construct: Proteomes (mouse brain membrane fraction or cell lysates); from tissue; host or cells: mouse brain membrane fraction (or unspecified cell lysates)
- Sequence (Q8R2Y0 1-336): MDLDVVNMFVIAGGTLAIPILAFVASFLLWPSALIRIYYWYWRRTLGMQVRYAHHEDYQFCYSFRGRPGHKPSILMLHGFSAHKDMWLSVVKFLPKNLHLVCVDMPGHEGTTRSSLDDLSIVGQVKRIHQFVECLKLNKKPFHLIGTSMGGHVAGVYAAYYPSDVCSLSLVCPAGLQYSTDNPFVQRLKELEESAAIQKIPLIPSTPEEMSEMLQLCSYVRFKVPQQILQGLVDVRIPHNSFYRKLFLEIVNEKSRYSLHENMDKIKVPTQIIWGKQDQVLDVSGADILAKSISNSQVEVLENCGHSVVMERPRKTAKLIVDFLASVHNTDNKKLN
- Protocol description: In vitro competitive activity-based protein profiling (mouse), ABHD6
- Format: biochemical
- Run parameters: mouse brain membrane fraction or cell lysates, 30 min preincubation at 37° C, FP-Rh probe
Quantity name: IC50

Req: Which value of IC50 has been reported for O=C(O)C(=O)c1cc(CN2CCN(C(=O)OC(C(F)(F)F)C(F)(F)F)CC2)ccc1C(F)(F)F [Example 84] in the records?
Resp: < 100 nM

Req: Record: O=C(OC(C(F)(F)F)C(F)(F)F)N1CCN(Cc2ccc(CN3CCCCC3)cc2OC(F)(F)F)CC1 [Example 24]
Resp: > 1000 nM

Req: Record: O=C(OC(C(F)(F)F)C(F)(F)F)N1CCN(Cc2cccc(OC(F)(F)F)c2N2CCC(N3CCCC3)CC2)CC1 [Example 32]
Resp: > 1000 nM

Req: Record: CN(C)C(=O)C1CCN(c2cc(C(F)(F)F)ccc2CN2CCN(C(=O)OC(C(F)(F)F)C(F)(F)F)CC2)CC1 [Example 35]
Resp: > 1000 nM

Req: Record: O=C(O)C1CCN(c2cc(CN3CCN(C(=O)OC(C(F)(F)F)C(F)(F)F)CC3)ccc2C(F)(F)F)CC1 [Example 85]
Resp: 100 to 1000 nM

Req: Record: Cc1cc(C)n(C2CN(c3cc(Cl)ccc3CN3CCN(C(=O)OC(C(F)(F)F)C(F)(F)F)CC3)C2)n1 [Example 38]
Resp: 100 to 1000 nM

Req: Record: O=C(OC(C(F)(F)F)C(F)(F)F)N1CCN(Cc2ccc(C(F)(F)F)cc2N2CCC3(CCCN3C3CC3)CC2)CC1 [Example 67]
Resp: > 1000 nM

* * *

- Target: ABHD6 (Mus musculus)
- Construct: Proteomes (mouse brain membrane fraction or cell lysates); from tissue; host or cells: mouse brain membrane fraction (or unspecified cell lysates)
- Sequence (Q8R2Y0 1-336): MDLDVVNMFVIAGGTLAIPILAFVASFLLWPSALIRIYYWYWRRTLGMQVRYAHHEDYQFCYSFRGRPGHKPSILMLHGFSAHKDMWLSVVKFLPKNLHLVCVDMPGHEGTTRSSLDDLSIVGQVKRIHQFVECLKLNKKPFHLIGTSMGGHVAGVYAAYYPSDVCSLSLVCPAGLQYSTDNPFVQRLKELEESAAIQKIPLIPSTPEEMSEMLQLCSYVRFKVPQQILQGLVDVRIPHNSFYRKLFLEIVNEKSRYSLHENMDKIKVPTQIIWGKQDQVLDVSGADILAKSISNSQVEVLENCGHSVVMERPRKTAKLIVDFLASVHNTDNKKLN
- Protocol description: In vitro competitive activity-based protein profiling (mouse), ABHD6
- Assay type: biochemical
- Run parameters: mouse brain membrane fraction or cell lysates, 30 min preincubation at 37° C, FP-Rh probe
Quantity name: IC50

Req: Which value of IC50 has been reported for O=C(OC(C(F)(F)F)C(F)(F)F)N1CCN(Cc2ccc(Cl)cc2N2CCC3(CCCN3C3CC3)CC2)CC1 [Example 66] in the records?
Resp: > 1000 nM

Req: Record: Cc1c(CN2CCC(NS(C)(=O)=O)CC2)cccc1CN1CCN(C(=O)OC(C(F)(F)F)C(F)(F)F)CC1 [Example 10]
Resp: 100 to 1000 nM

Req: Record: O=C(O)C(=O)c1cc(CN2CCN(C(=O)OC(C(F)(F)F)C(F)(F)F)CC2)cc(C(F)(F)F)c1 [Example 93]
Resp: 100 to 1000 nM

Req: Record: CS(=O)(=O)N[C@@H]1CCN(c2cc(Cl)ccc2CN2CCN(C(=O)OC(C(F)(F)F)C(F)(F)F)CC2)C1 [Example 39]
Resp: > 1000 nM
